Experiment: Cytotoxicity against human NCI-H460/MX20 cells assessed as concentration that causes inhibition of cell viability by <=20% incubated for 24 hrs by MTT assay
Format: cell-based
measured_metric: Activity (µM)
Kindly provide the numeric value in µM only, without the unit symbol.

I'd like to know its Activity. The compound in question is O=C(c1ccc(O)cc1O)c1c[nH]c2c(O)cccc12
10

Need Activity of COc1ccc(C(=O)c2c[nH]c3ccc(OC)cc23)c(OC)c1 , thanks.
25

Which measured Activity value corresponds to O=C(c1cc(O)c(O)c(O)c1)c1c[nH]c2ccc(O)cc12 ?
25

# Activity lookup, item O=C(c1ccc(O)cc1)c1ccc2[nH]cc(C(=O)c3ccc(O)cc3)c2c1O
25

For the compound shown here, O=C(c1c(O)cccc1O)c1c[nH]c2ccc(O)cc12 , give the reported Activity.
10

For COc1ccc(C(=O)c2ccc3[nH]cc(C(=O)c4ccc(OC)cc4OC)c3c2OC)c(OC)c1 , what is its reported Activity?
25

Activity for O=C(c1ccc(O)cc1O)c1c[nH]c2ccc(O)cc12 ?
25

Suppose we examine the compound O=C(c1ccc(O)cc1)c1c[nH]c2cccc(O)c12 ; what Activity value has been reported?
25

Find the recorded Activity belonging to COc1ccc(C(=O)c2ccc3[nH]cc(C(=O)c4ccc(OC)cc4)c3c2OC)cc1 and report it.
25

Fill in: Activity of COc1ccc(C(=O)c2c[nH]c3cccc(OC)c23)c(OC)c1 is ___
25

Need Activity, item COc1ccc2[nH]cc(C(=O)c3cc(OC)c(OC)c(OC)c3)c2c1
1

For the compound O=C(c1ccc(O)cc1)c1c[nH]c2ccc(O)cc12 , what Activity is on record?
25

What value of Activity has been recorded for this entry: O=C(c1cc(O)c(O)c(O)c1)c1c[nH]c2cccc(O)c12
25

// Activity lookup, key: COc1ccc2[nH]cc(C(=O)c3ccccc3OC)c2c1
1

Look at this compound and give its reported Activity. COc1ccc(C(=O)c2c(OC)ccc3cc(OC)ccc23)c(OC)c1
10

Which Activity value belongs to O=C(c1ccccc1O)c1c[nH]c2ccc(O)cc12 ?
25

Which Activity reading was recorded for the compound COc1ccc2[nH]cc(C(=O)c3c(OC)cccc3OC)c2c1 ?
1
